# System: VLDL secretion in vivo in rats
# Test description: Measurement of blood cholesterol and triglyceride in rats (VLDL secretion, Triton WR-1339)
# Setup conditions: Rattus norvegicus; male SD rats, oral, Triton WR-1339 400 mg/kg i.v. after 1 hour, blood after 4 hours; read-out: ED50 TC (total cholesterol secretion lowering effect)
Measured ED50 by item
Your answer is read as mg/kg, so omit the unit and give the number.

// solved cases for ED50 follow
Cc1nc2c(c(C)c1CCC(=O)O)c1ccccc1n2Cc1ccc([C@@H](C(=O)NCc2ccccc2)C2CCOCC2)cc1 [Example 19] :: 0.17
Cc1nc2c(c(C)c1CCC(=O)O)c1ccccc1n2Cc1ccc([C@@H](C(=O)N(C)C)C2CCOCC2)cc1 [Example 37] :: 0.71
CCCN1CCN(C(=O)[C@H](c2ccc(Cn3c4ccccc4c4c(C)c(CCC(=O)O)c(C)nc43)cc2)C2CCOCC2)CC1 [Example 18] :: 0.5

Now look at this one.
[ask] Requested read-out: ED50. Entry: Cc1nc2c(c(C)c1CCC(=O)O)c1ccccc1n2Cc1ccc([C@@H](C(=O)N2CCN(c3ccccn3)CC2)C2CCOCC2)cc1 [Example 17]
[reply] 0.74
